Reported Kd values are given for each entry in this list.
- subject-of-test: T1, human tissue factor (human TF, Lake Pharma) (human, UniProt P13726 33-251, limits assumed)
- T1 construct: bought recombinant antigen; also called CD142
- assay-text: Biacore SPR kinetics, antibody captured on anti-Fc, 1:1 Langmuir fit
Just the number in nM, nothing appended.

Solved entries (count: 2):
mAb 48: aTF_2842-B01_HC1_Y180/F404TAG; aTF_2842-B01_LC3 (antibody, IgG1, V domains shown, non-natural amino acid (pAMF) at TAG sites Y180 and F404 (EU), * in the sequence, unconjugated full-length IgG1/kappa; also called 2842-B01 HC1/LC3) VH: QVQVVESGGGLVKPGGSLRLSCAASGFSISSYDMSWIRQAPGKGLEWIGIIGSNGRTYYADSVKGRFTISRNTNENTVYLQMNSLRAEDTAVYYCARGLYDGTGNIWGQGTLVTVSS VL: DIQMTQSPSSLSASVGDRVTITCQASQSVYGNNWLSWYQQKPGKAPKLLIYGASKLASGVPSRFSGSGSGTDFTLTISSLQPEDFATYYCQGTYYSGDWYFAFGGGTKVEIKR = 17.4
mAb 37: aTF_2842-B01_Hc3_Y180/F404TAG pAzMeF; aTF_2842-B01_Lc2 (antibody, IgG1, V domains shown, pAzMeF at Y180 and F404 (EU), * in the sequence, unconjugated full-length IgG1/kappa, cell-free expressed; also called 2842-B01 HC3/LC2; 2842-B01-HC3/LC2 Y180/F404) VH: EVQLVESGGGLVQPGGSLRLSCAASGFSISSYDMSWVRQAPGKGLEWIGIIGSNGRTYYPDSVKGRFTISRDNSKNTVTLQMNSLRAEDTAVYYCARGLYDGTGNIWGQGTLVTVSS VL: ELVMTQSPPTLSLSPGERVTLSCRASQSVYGNNWLSWYQQKPGQAPRLLIYGASKLATSIPARFSGSGSGTQFTLTISSLQPEDFAVYYCQGTYYSGDWYFAFGQGTKVEIKR = 7.3

Consider the record given below.
// recorded Kd for mAb 49: aTF_2842-G04_HC2_Y180/F404TAG; aTF_2842-G04_LC2 (antibody, IgG1, V domains shown, non-natural amino acid (pAMF) at TAG sites Y180 and F404 (EU), * in the sequence, unconjugated full-length IgG1/kappa; also called 2842-G04 HC2/LC2) VH: QVQVQESGPGLVKPPGTLSLTCAVSGFSLSYYGVSWVRQPPGKGLEWIGTIDSSGRTYYNPSLKSRVTISNDNAPNTVSLKLSSVTAADTAVYYCARDFYGWNSGALDIWGQGTLVTVSS VL: DLQLTQSPSTLSASVGDRVTITCRASQSVYSNKYLSWYQQKPGKAPKLLIYKASTLASGVPSRFSGSGSGTEFTLTISSLQPDDFATYYCAAAYSDDSDTAFGQGTKVEIKR : 13.8
